Molecular target: T1, human LTBR on cells (human, UniProt P36941 31-435)
T1 construct: also called recombinant human LTBR CHO cells; CHO-K1 cells overexpressing human LTBR
Experiment: FACS CHO-huLTBR, 0.01 µg/ml
OBSERVATION_TYPE: MFI (MFI)
Answers are plain numbers, in MFI.

Reported MFI for P1AE1873 (CBE11) (antibody, human IgG1, kappa, L234A L235A, V domains shown) VH: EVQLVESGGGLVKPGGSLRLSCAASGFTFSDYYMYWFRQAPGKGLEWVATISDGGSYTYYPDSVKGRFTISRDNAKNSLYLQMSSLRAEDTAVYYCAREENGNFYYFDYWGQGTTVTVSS VL: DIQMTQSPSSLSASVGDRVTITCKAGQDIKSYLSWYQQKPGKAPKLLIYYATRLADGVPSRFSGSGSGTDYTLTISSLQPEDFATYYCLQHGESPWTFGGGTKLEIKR was 3960
